B1: SASS6 (parent)
chain: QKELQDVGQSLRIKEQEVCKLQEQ

Variants of: B1
Assay: protein stability index of a GFP-peptide fusion (GPS, HEK-293T) (PSI 1-6); higher = more stable;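 note: lentivirally expressed fusions sorted by FACS into six bins by GFP to DsRed ratio, PSI derived from sequencing read proportions per bin multiplied by bin number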
Conditions: c terminus: a fixed tail appended
Some variants, each annotated with its measured protein stability index.
// keep it numeric: no unit symbol after the value

Some solved cases for reference:
   mutation_label  value_reported
0            Q22N            5.11
1            E23T            4.99
2             Q5I            5.02
3             Q9R             5.1
4             G8N            5.12

We now examine a further variant.
q: Fill in the blank: the reported protein stability index of "L21M" is ____.
a: 5.03
